- Assay Remarks: Primary qHTS for inhibitors of La Crosse Virus (LACV) - induced cell death in SH-SY5Y cells (AID 1508616);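 further: top concentration of the series differs between compounds; 0% = infected DMSO wells and 100% = uninfected DMSO wells; higher means more rescue of cells from virus-induced death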
- Condition Context: SH-SY5Y LACV cytopathicity rescue, ATP luminescence, 6 d; series mostly up to 4.29 µM
Results filed as inconclusive are left out. Calls of active or inactive are those of the source. The call rests on the fitted dose curve; in most records, active means well fitted inhibition curve with a large enough effect; inconclusive means small, poorly fitted or top-dose-only effect; inactive means no such curve, though single readings can be large or run the other way.
Observed Property: activity change

CCOC(=O)C(O)c1ccccc1 (stereo not drawn) = inactive
CN1CCN(N)CC1 = inactive
COc1cc(S(N)(=O)=O)cc(C(=O)O)c1OC = inactive
CCN(CC)CCOc1ccc(/C(=C(\Cl)c2ccccc2)c2ccccc2)cc1 = inactive
C=C(C)C(=O)OCC(O)CO (stereo not drawn) = inactive

**Query** Need activity change of `Cc1[nH]cnc1-c1ccc(Cl)cc1` , thanks.
**Result** inactive

**Query** Please answer likewise for `Cc1nc2n(c(=O)c1CCN1CCC(C(=O)c3ccc(F)cc3)CC1)CCS2`
**Result** inactive

**Query** Please answer likewise for CC(NCCC(c1ccccc1)c1ccccc1)c1ccccc1 (stereo not drawn)
**Result** inactive

**Query** Please answer likewise for CCCC(=O)OCOC(=O)C1=C(C)NC(C)=C(C(=O)OC)C1c1cccc(Cl)c1Cl (stereo not drawn)
**Result** inactive

**Query** Please answer likewise for `O=C1NCCN1CCN1CCC(c2cn(-c3ccc(F)cc3)c3ccc(Cl)cc23)CC1`
**Result** inactive

**Query** Please answer likewise for `CC(C)NCCCC1(C(N)=O)c2ccccc2-c2ccccc21`
**Result** inactive

**Query** Please answer likewise for CC(=O)N(CC(O)CO)c1c(I)c(C(=O)NCCO)c(I)c(C(=O)NCC(O)CO)c1I (stereo not drawn)
**Result** inactive

**Query** Please answer likewise for `CN(C)C(=O)CNC(=O)Cc1ccccc1`
**Result** inactive

* * *

- Assay Remarks: qHTS of pediatric cancer cell lines to identify multiple opportunities for drug repurposing: Primary screen for LAN-5 cells (AID 1347100); further: potency means the concentration at half of the fitted maximal effect
- Condition Context: LAN-5 neuroblastoma viability, CellTiter-Glo luminescence, 48 h; series mostly up to 46 µM
Inconclusive results are not listed. Active and inactive are the calls of the source. Calls follow the shape of the dose curve; as a rule, active = well fitted cell-killing curve with a large enough effect; inconclusive = small, poorly fitted or top-dose-only effect; inactive = no such curve, though single readings can be large or run the other way.
Observed Property: Potency

Below: 9 compounds and their reported Potency.
CC(C)(C)c1nnc(NS(=O)(=O)c2ccccc2)s1 = inactive
O=C1CC(c2ccc(Cl)cc2)CC(=O)N1 = inactive
CC(C)C(=O)Nc1cccc(C2CN3CCSC3=N2)c1 (stereo not given) = inactive
CC(C)C(=O)OCc1cccc(OC(=O)[C@@H]2N3C(=O)[C@@H](NC(=O)Cc4ccccc4)[C@H]3SC2(C)C)c1 = inactive
COC(=O)c1cc(Cl)ccc1OC = inactive
CN(C(=O)C(Cl)Cl)c1ccc(OC(=O)c2ccco2)cc1 = inactive
CC(=O)OCC(=O)[C@@]1(O)[C@H](OC(C)=O)C[C@H]2[C@@H]3CCC4=CC(=O)C=C[C@]4(C)[C@@]3(F)[C@@H](O)C[C@@]21C = inactive
CCCCC/C=C\C/C=C\CCCCCCCC(=O)NC(C)c1ccccc1 (stereo not given) = inactive
C[C@H]1C[C@H]2[C@@H]3CCC4=CC(=O)C=C[C@]4(C)[C@H]3C(=O)C[C@]2(C)[C@@]1(O)C(=O)CO = inactive

**Query** Need Potency of CO[C@@H]1[C@@H](OC)[C@H](C)[C@@](O)(CC(=O)O)O[C@H]1[C@H](C)[C@H]1O[C@@]2(CC[C@@](C)([C@H]3CC[C@@](C)([C@@H]4O[C@@H]([C@H]5O[C@](C)(O)[C@H](C)C[C@@H]5C)C[C@@H]4OC4C[C@H](OC)[C@@H](OC)[C@H](C)O4)O3)O2)C[C@H](O)[C@H]1C (stereo not given in full) , thanks.
**Result** 1060 nM (active)

* * *

- Assay Remarks: Primary qHTS for small molecule stabilizers of the endoplasmic reticulum resident proteome: Secreted ER Calcium Modulated Protein (SERCaMP) assay (AID 1508630); further: on the % scale 0 is the no-effect control and ±100 the full control effect
- Condition Context: SH-SY5Y GLuc-SERCaMP (Gaussia luciferase released on ER calcium loss) secretion, thapsigargin, luminescence; series mostly up to 38.4 µM
Records with an inconclusive call do not appear. The source made the active and inactive calls. Calls come from the whole dose curve; as a rule, active = well fitted inhibition curve with a large enough effect; inconclusive = small, poorly fitted or top-dose-only effect; inactive = no such curve, though single readings can be large or run the other way.
Observed Property: outcome

C[C@@H]1CCC[C@H](C)N1CCCC(O)(c1ccccc1)c1ccccn1 (stereo partly drawn) = inactive
CCCCCCCCCCCCCCCCCCNC(=O)OC1CCN(C(=O)OC[C@H](COC(=O)N(Cc2cccc[n+]2CC)C(=O)c2ccccc2OC)OC)CC1 = inactive
O=C(O)c1cn(C2CC2)c2cc(Cl)c(F)cc2c1=O = inactive
OCCCc1ccccc1 = inactive
N[C@@H](Cc1cc(I)c(O)c(I)c1)C(=O)O = inactive

Attention now shifts to the item below.
**Query** Need outcome of `CCN(CC)CCN` , thanks.
**Result** inactive

* * *

- System: CRL-7250
- Assay Remarks: Cytotoxic Profiling of Annotated Libraries Using Quantitative High-Throughput Screening (AID 1296008); further: nearly all actives have a fitted effect of over 60% in size
- Condition Context: Five cell lines viability, CellTiter-Glo ATP luminescence, 48-72 h
Inconclusive results are not listed. Active and inactive are the calls of the source. Calls come from the whole dose curve; as a rule, active = well fitted inhibition curve with a large enough effect; inconclusive = small, poorly fitted or top-dose-only effect; inactive = flat fitted curve, though single readings scatter.
Select the correct class. Options are 1 for active, 0 for inactive and nothing else.

Completed entries (count: 10):
O=C1Nc2ccccc2C1(c1ccc(O)cc1)c1ccc(O)cc1 = 1
CSc1ccc(/C=C2/C(C)=C(CC(=O)O)c3cc(F)ccc32)cc1 = 0
Cc1cc(CCCOc2c(C)cc(-c3noc(C(F)(F)F)n3)cc2C)on1 = 0
CC(C)C(=O)OCc1cccc(OC(=O)[C@@H]2N3C(=O)[C@@H](NC(=O)Cc4ccccc4)[C@H]3SC2(C)C)c1 = 0
CCC(=O)O[C@]1(C(=O)COC)[C@@H](C)C[C@H]2[C@@H]3CCC4=CC(=O)C=C[C@]4(C)C3(F)[C@@H](O)C[C@@]21C (stereo partly specified) = 0
O=C(OCC(COC(=O)c1cccnc1)(COC(=O)c1cccnc1)COC(=O)c1cccnc1)c1cccnc1 = 0
CCC(CN)=C(c1ccccc1)c1ccccc1 = 0
COc1ccc2c(c1)c(CC(=O)OC/C=C(\C)CC/C=C(\C)CCC=C(C)C)c(C)n2C(=O)c1ccc(Cl)cc1 = 0
O=C1NC(c2ccccc2)(c2ccccc2)C(=O)N1COP(=O)(O)O = 0
Oc1ccccc1-c1nnco1 = 0

**Query** Any idea what this test logged for COc1ccccc1N1CCN(CC(O)COc2cc(OC)c(OC)c(OC)c2)CC1 (stereo unspecified) ?
**Result** 0

**Query** Please answer likewise for `Nc1ccc2cc3ccc(N)cc3nc2c1`
**Result** 1

**Query** Please answer likewise for `Cc1[nH]cnc1-c1ccc(Cl)cc1`
**Result** 0

**Query** Please answer likewise for `CCCCCCCCCCCC[N+](C)(C)Cc1ccccc1`
**Result** 1

**Query** Please answer likewise for `CC(C)=CCNc1ncnc2c1ncn2[C@@H]1O[C@H](CO)[C@@H](O)[C@H]1O`
**Result** 1

**Query** Please answer likewise for `O=[N+]([O-])c1ccc(-c2nc(-c3ccc(F)cc3)c(-c3ccncc3)[nH]2)cc1`
**Result** 0

* * *

- System: NIH3T3
- Assay Remarks: Cytotoxic Profiling of Annotated Libraries Using Quantitative High-Throughput Screening (AID 1296008); further: nearly all actives have a fitted effect of over 60% in size; on max response: on the % scale 0 is the no-effect control and ±100 the full control effect
- Condition Context: Five cell lines viability, CellTiter-Glo ATP luminescence, 48-72 h; stronger effect = lower value
Inconclusive results are not listed.
Observed Property: max response (%)
Quick note: give the figure in %, leave out the unit.

Below: 3 molecules and their reported max response.
COC(=O)c1ccc(NC(C)=O)cc1OC = -16.1
C/C(=C(/OCCOc1ccc(Cl)cc1)c1ccc(Cl)cc1Cl)n1ccnc1 = -25.5
C[C@@H](C1=C(CCN(C)C)Cc2ccccc21)c1ccccn1 = 1.99

Attention now shifts to the item below.
**Query** Need max response of `Cc1c(C)c2c(c(C)c1OC(=O)CCC(=O)OCCO)CC[C@@](C)(CCC[C@H](C)CCC[C@H](C)CCCC(C)C)O2` , thanks.
**Result** -19.3

* * *

- Assay Remarks: qHTS of pediatric cancer cell lines to identify multiple opportunities for drug repurposing: Primary screen for Rh41 cells (AID 1347108); further: nearly all actives have a fitted effect of over 70% in size
- Condition Context: Rh41 rhabdomyosarcoma viability, CellTiter-Glo luminescence, 48 h; series mostly up to 46 µM
Results filed as inconclusive are left out. The source made the active and inactive calls. Calls follow the shape of the dose curve; as a rule, active = well fitted cell-killing curve with a large enough effect; inconclusive = small, poorly fitted or top-dose-only effect; inactive = no such curve, though single readings can be large or run the other way.
Select the correct class. Options are true (active), false (inactive) and nothing else.

C/C=C(/C(=C/C)c1ccc(OC(C)=O)cc1)c1ccc(OC(C)=O)cc1 = false
COc1cc2nc(Cl)nc(N)c2cc1OC = false
CCC(CN)=C(c1ccccc1)c1ccccc1 = false
COc1ccccc1OCC1CNC(=O)O1 (centres undefined) = false
Nc1c2ccccc2nc2ccccc12 = true
CCCCNc1ccc(C(=O)OCCN(CC)CC)cc1 = false
O=C(Oc1ccccc1)c1ccccc1O = false
CCOC(=O)OCC/C(SC(=O)OCC)=C(\C)N(C=O)Cc1cnc(C)nc1N = false

**Query** Any idea what this test logged for `CC(=O)OCC(=O)[C@@]1(O)[C@H](OC(C)=O)C[C@H]2[C@@H]3CCC4=CC(=O)C=C[C@]4(C)[C@@]3(F)[C@@H](O)C[C@@]21C` ?
**Result** false
